These entries and their values trace back to patent US20220220100A1.

Protocol: Solubility in Rhodiasolv IRIS solvent
Type: physicochemical
Cond: Rhodiasolv IRIS (dimethyl-2-methyl glutarate); wt %
Readout type: Solubility in Rhodiasolv IRIS

// Solubility in Rhodiasolv IRIS value for COc1ccc2oc(-c3ccc(C(C)(C)C)cc3)c(C3=C(c4cc(-c5ccc(C(C)(C)C)s5)sc4-c4ccc(C(C)(C)C)s4)C(F)(F)C(F)(F)C3(F)F)c2c1 : <3%

// Solubility in Rhodiasolv IRIS value for CC(C)(C)c1ccc(-c2oc3cc(OCCN4CCOC4=O)c(OCCN4CCOC4=O)cc3c2C2=C(c3cc(-c4cc5c(s4)C(C)(C)CCC5(C)C)sc3-c3cc4c(s3)C(C)(C)CCC4(C)C)C(F)(F)C(F)(F)C2(F)F)cc1 : >10%

// Solubility in Rhodiasolv IRIS value for CCOC(=O)CCCOc1cc2oc(-c3ccc(C(C)(C)C)cc3)c(C3=C(c4cc(-c5ccc(C(C)(C)C)s5)sc4-c4ccc(C(C)(C)C)s4)C(F)(F)C(F)(F)C3(F)F)c2cc1OCCCC(=O)OCC : >10%

// Solubility in Rhodiasolv IRIS value for CCOC(=O)CCCOc1cc2oc(-c3ccc(C(C)(C)C)cc3)c(C3=C(c4cc(-c5cc6c(s5)C(C)(C)CCC6(C)C)sc4-c4cc5c(s4)C(C)(C)CCC5(C)C)C(F)(F)C(F)(F)C3(F)F)c2cc1OCCCC(=O)OCC : >10%

// Solubility in Rhodiasolv IRIS value for CC(=O)Oc1cc2oc(-c3ccc(C(C)(C)C)cc3)c(C3=C(c4cc(-c5ccc(C(C)(C)C)s5)sc4-c4ccc(C(C)(C)C)s4)C(F)(F)C(F)(F)C3(F)F)c2cc1OC(C)=O : >10%

// Solubility in Rhodiasolv IRIS value for COc1cc2oc(-c3ccc(C(C)(C)C)cc3)c(C3=C(c4cc(-c5ccc(C(C)(C)C)s5)sc4-c4sc(C(C)(C)C)cc4C)C(F)(F)C(F)(F)C3(F)F)c2cc1OC : <5%

// Solubility in Rhodiasolv IRIS value for COCCCOc1cc2oc(-c3ccc(C(C)(C)C)cc3)c(C3=C(c4cc(-c5cc(C(C)(C)C)cs5)sc4-c4cc(C(C)(C)C)cs4)C(F)(F)C(F)(F)C3(F)F)c2cc1OCCCOC : >10%

// Solubility in Rhodiasolv IRIS value for COCCOc1cc2oc(-c3ccc(C(C)(C)C)cc3)c(C3=C(c4cc(-c5ccc(C(C)(C)C)s5)sc4-c4ccc(C(C)(C)C)s4)C(F)(F)C(F)(F)C3(F)F)c2cc1OCCOC : >10%

// Solubility in Rhodiasolv IRIS value for COc1cc2oc(-c3ccc(C(C)(C)C)cc3)c(C3=C(c4cc(-c5ccc(C(C)(C)C)s5)sc4-c4ccc(C(C)(C)C)s4)C(F)(F)C(F)(F)C3(F)F)c2cc1OC : 7%

// Solubility in Rhodiasolv IRIS value for CC(=O)Oc1cc2oc(-c3ccc(C(C)(C)C)cc3)c(C3=C(c4cc(-c5cc(C(C)(C)C)cs5)sc4-c4cc(C(C)(C)C)cs4)C(F)(F)C(F)(F)C3(F)F)c2cc1OC(C)=O : >3%

// Solubility in Rhodiasolv IRIS value for CCOC(=O)CCCOc1cc2oc(-c3ccc(C(C)(C)C)cc3)c(C3=C(c4cc(-c5ccc(C(C)(C)C)s5)sc4-c4sc(C(C)(C)C)cc4C)C(F)(F)C(F)(F)C3(F)F)c2cc1OCCCC(=O)OCC : >10%
